Cited source: the Human Domainome abundance scans (Beltran et al. 2025)

B1: Gamma-crystallin C, residues 4 to 79; numbered along this chain, P07315 (parent)
chain: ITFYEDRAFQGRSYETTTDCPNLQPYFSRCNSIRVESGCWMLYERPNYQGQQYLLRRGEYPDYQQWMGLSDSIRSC

# Variants of: B1
# measurementProtocol: abundance fitness (aPCA) (normalised: wild type 0, dead -1); higher = more abundant; growth selection in yeast, the domain comes from the species named
# experimentalConditions: Homo sapiens
Note to self: values exactly at -0.05 are true (1). So abundance fitness at or above -0.05 is true (1), below is false (0).

>>> print(df.to_string())
                                sequencedata  categorylabel
 0  ITFYEDRAFQGRSYETTTDCPNLQPYFSRCNSIRVESGCWCLYERPNYQGQQYLLRRGEYPDYQQWMGLSDSIRSC [M41C]       true (1)
 1  ITFYEDRAFQGRSYETTTDCPNLQPYFSRCNSIRVESGCWMLYENPNYQGQQYLLRRGEYPDYQQWMGLSDSIRSC [R45N]      false (0)
 2  ITFYEDRAFQGRSYETTTDCPNLQPYFSRCNSIRVESGCWMLYERPNYQGQQYLLRRGEYTDYQQWMGLSDSIRSC [P61T]      false (0)
 3  ITFYEDRAFQGRSYETTTDCPNLQPYFSRCNSIRVESGPWMLYERPNYQGQQYLLRRGEYPDYQQWMGLSDSIRSC [C39P]       true (1)
 4  ITFYWDRAFQGRSYETTTDCPNLQPYFSRCNSIRVESGCWMLYERPNYQGQQYLLRRGEYPDYQQWMGLSDSIRSC [E5W]      false (0)
 5  ITFYEDRAFQGRSYETTTTCPNLQPYFSRCNSIRVESGCWMLYERPNYQGQQYLLRRGEYPDYQQWMGLSDSIRSC [D19T]      false (0)
 6  ITFYEDRAFQGRSYETTTDCPNLQPYFSRCNSIRVESGCWMLYERPNYQGQQYLLRRNEYPDYQQWMGLSDSIRSC [G58N]       true (1)
 7  ITFYEDRAFQGRSYETTTDCPNLQPYFSRCNSIRVESGCWMLYSRPNYQGQQYLLRRGEYPDYQQWMGLSDSIRSC [E44S]      false (0)
 8  ITFYEDRAFQGRSYETTTDCPNLQPYFSRCNSIRVESGCWMLYERPNYQGQQYLLRRGEYPDYQQWMGSSDSIRSC [L69S]      false (0)
 9  ITFYEDRAFQGRSYETTTDCPNLQPYFSRCNSIRVESGCWMLYERPNYQGQQYLLRRGEYPDYQQWMGLSDSRRSC [I73R]      false (0)
10  ITFYEDRAFQGRSYETTTDCPNLQTYFSRCNSIRVESGCWMLYERPNYQGQQYLLRRGEYPDYQQWMGLSDSIRSC [P25T]       true (1)
11  ITFYEDRAFQGRSYETTTDCPNLQPYFSRCNSIRVESGCWMLYERPNYQGQQYLLRCGEYPDYQQWMGLSDSIRSC [R57C]       true (1)
12  ITFYEDRAFQGRSYETTTDCPNLQPYFSRCNSIRVESGCWMLYDRPNYQGQQYLLRRGEYPDYQQWMGLSDSIRSC [E44D]       true (1)
13  ITFYEDRAFQGRSYETTTDCPNLQPYFSRCNSIRVESGCWMLYERPNYQGQQYLFRRGEYPDYQQWMGLSDSIRSC [L55F]      false (0)
14  ITFYEDRAFQGRSYETTTDCPNLQPYFSRCNSIAVESGCWMLYERPNYQGQQYLLRRGEYPDYQQWMGLSDSIRSC [R34A]       true (1)
15  ITFYEDRAFQGRSYETTTDCPNWQPYFSRCNSIRVESGCWMLYERPNYQGQQYLLRRGEYPDYQQWMGLSDSIRSC [L23W]      false (0)
16  ITFYEDRAFQGRSYETTTDCPNLQPYFSRCNSIRVESGCWMLYERPNYQGGQYLLRRGEYPDYQQWMGLSDSIRSC [Q51G]       true (1)
17  ITFYEDRAFQGRSYWTTTDCPNLQPYFSRCNSIRVESGCWMLYERPNYQGQQYLLRRGEYPDYQQWMGLSDSIRSC [E15W]       true (1)
18  ITFYEDRAFQGRSYETTTDCPNLQPYFSRCNSIRVESGCWMLYERPNYQGQQYLLRRGEYPDYQQWLGLSDSIRSC [M67L]       true (1)
19  IMFYEDRAFQGRSYETTTDCPNLQPYFSRCNSIRVESGCWMLYERPNYQGQQYLLRRGEYPDYQQWMGLSDSIRSC [T2M]      false (0)
20  ITFYEDRAFQGRSYETTTDCPNLQPYFSRCNSIRVESGCDMLYERPNYQGQQYLLRRGEYPDYQQWMGLSDSIRSC [W40D]      false (0)
21  ITFYEDRAFQGRSYETTTDCPNLQPYFCRCNSIRVESGCWMLYERPNYQGQQYLLRRGEYPDYQQWMGLSDSIRSC [S28C]      false (0)
22  ITFYEDRAFQGRSYETTTDCPNLQPYFSRCNSIRVESGCWMLYERPNYQGQQNLLRRGEYPDYQQWMGLSDSIRSC [Y53N]      false (0)
23  ITFYEDRCFQGRSYETTTDCPNLQPYFSRCNSIRVESGCWMLYERPNYQGQQYLLRRGEYPDYQQWMGLSDSIRSC [A8C]       true (1)
24  ITFYEDRAFQGRSYETTTDCPNLQPYFSRCNSIRVELGCWMLYERPNYQGQQYLLRRGEYPDYQQWMGLSDSIRSC [S37L]      false (0)
25  ITFYEARAFQGRSYETTTDCPNLQPYFSRCNSIRVESGCWMLYERPNYQGQQYLLRRGEYPDYQQWMGLSDSIRSC [D6A]      false (0)
26  ITFYEDRAFQGRSYETTTDCPNLQPYFSRCNSIRVESGCWMLYERPNYQGQQYLLRRGEYPDNQQWMGLSDSIRSC [Y63N]      false (0)
27  ITFYEDRAFQGRSYETTTDCPNLQPYFSRCNSISVESGCWMLYERPNYQGQQYLLRRGEYPDYQQWMGLSDSIRSC [R34S]      false (0)
28  ITFYEDRAFQGRSYETTTDCPNLQPYFSRCNSIRVESGCWMLYEHPNYQGQQYLLRRGEYPDYQQWMGLSDSIRSC [R45H]      false (0)
29  ITFYEDRAFQGRSYETTTDCPNLKPYFSRCNSIRVESGCWMLYERPNYQGQQYLLRRGEYPDYQQWMGLSDSIRSC [Q24K]       true (1)
30  ITFREDRAFQGRSYETTTDCPNLQPYFSRCNSIRVESGCWMLYERPNYQGQQYLLRRGEYPDYQQWMGLSDSIRSC [Y4R]      false (0)
31  ITFYEDWAFQGRSYETTTDCPNLQPYFSRCNSIRVESGCWMLYERPNYQGQQYLLRRGEYPDYQQWMGLSDSIRSC [R7W]      false (0)
32  ITFYEDRAFQGRSYETTTDCPNLQPYFSRCNSIRVESGCWMLYFRPNYQGQQYLLRRGEYPDYQQWMGLSDSIRSC [E44F]      false (0)
33  ITFYEDRAFQGRSYETTTDCPNLQPYFSRCNSIRVESGCWMLYERPNYQGQQYLLRRGEYPDYQQWMGLSFSIRSC [D71F]      false (0)
34  ITFYEDRAFQGRSYETTTDCPNLQPYFSRCNSIRVESGCWMLYERPNYQGQQYLLRRGEYPDYQQWMGLSDSIRSH [C76H]      false (0)
35  ITFYEDRAFQGRSYETTTDCPNLQPYFSRCNSIRVESGCWMLYERPNYQGQQYTLRRGEYPDYQQWMGLSDSIRSC [L54T]      false (0)
36  ITFYEDRSFQGRSYETTTDCPNLQPYFSRCNSIRVESGCWMLYERPNYQGQQYLLRRGEYPDYQQWMGLSDSIRSC [A8S]       true (1)
37  ITFYEDRAFQGRSYETTTDCPNLQPYFSRCNSIRVESGCWMLYERPNYQGQQYLLRRGEYPDYQQWMGLLDSIRSC [S70L]       true (1)
38  ITFYEDRTFQGRSYETTTDCPNLQPYFSRCNSIRVESGCWMLYERPNYQGQQYLLRRGEYPDYQQWMGLSDSIRSC [A8T]       true (1)
39  ITFYEDRAFQGRSYETTTDCPNLQPYFSRCNSIRVESGCWMLYERPNYQGQQYLLRRGEYPDYQQYMGLSDSIRSC [W66Y]       true (1)
40  ITFYQDRAFQGRSYETTTDCPNLQPYFSRCNSIRVESGCWMLYERPNYQGQQYLLRRGEYPDYQQWMGLSDSIRSC [E5Q]      false (0)
41  ITFYEDRAFQGRSYETTTDCPNLQPAFSRCNSIRVESGCWMLYERPNYQGQQYLLRRGEYPDYQQWMGLSDSIRSC [Y26A]       true (1)
42  ITFYEDRAFQGRSYETTTDCPNLQPYFSRCNSIRVESGCWMLYERPNYQGQQYLLRRGEYPDYQQWMGLSDSIRFC [S75F]      false (0)
